src = PubChem BioAssay AID1159554

# protocol-summary: P. falciparum Dd2 growth inhibitors, primary screen, SYBR Green fluorescence, single dose replicates (AID 1159554)
# condition-context: 72 h, at 10 µM
In all, about 94,000 compounds went through this assay and about 2,100 (2.2%) were called active. Rule as the data show it: active = activity change below about -80%; inconclusive = no clear call, values can overlap the other calls; inactive = above that. What follows is part of a selection rich in actives, with near analogues and random picks from the rest.
Outcome field: choose from active, inactive

Solved entries:
structure-as-smiles	group-label
COc1ccc2c3c([nH]c2c1)[C@H](CO)N(Cc1ccc(F)cc1)CC31CCN(Cc2ccccn2)CC1	active
CC(C)C#Cc1ccc([C@H]2[C@@H](CO)N3C(=O)CN(C(=O)Cc4ccccc4)C[C@H]23)cc1	inactive

# evaluate next
Could you kindly confirm the outcome this assay logged for COc1ccc2c3c([nH]c2c1)[C@@H](CO)N(C(=O)C1CC1)CC31CCN(Cc2nccs2)CC1 ? inactive

###

# protocol-summary: P. falciparum Dd2 growth inhibitors, primary screen, SYBR Green fluorescence, single dose replicates (AID 1159554)
# condition-context: 72 h, at 10 µM
The whole screen tested about 94,000 compounds, of which about 2,100 (2.2%) were called active. Rule as the data show it: active = activity change below about -80%; inconclusive = no clear call, values can overlap the other calls; inactive = above that. The full list was thinned out, with actives kept by preference.
Outcome field: choose from active, inactive

structure-as-smiles	group-label
CC(C)NC(=O)N[C@H]1C=C[C@H](CC(=O)NCCN2CCCC2)O[C@@H]1CO	inactive
CCC(=O)N1CC2(CN(Cc3ccc(Cl)cc3)C2)c2c([nH]c3cc(OC)ccc23)[C@@H]1CO	inactive
COc1cccc(CN(C)C[C@H]2OCc3ccccc3-c3c(n(C)c4ccccc34)C(=O)N([C@@H](C)CO)C[C@@H]2C)c1	inactive
C/C=C/c1ccc([C@@H]2[C@H](CO)N(CC3CCCC3)C23CN(C(=O)CC)C3)cc1	inactive
CC(=O)N1[C@H](CN(C)S(=O)(=O)c2ccccc2)[C@H](c2ccccc2)[C@@H]1CO	inactive

Could you kindly confirm the outcome this assay logged for COc1ccc2c3c([nH]c2c1)[C@H](CO)N(Cc1ccccc1)CC31CCN(C(=O)c2ccccn2)CC1 ? active

Could you kindly confirm the outcome this assay logged for CCC(=O)N1CCC2(CC1)CN(Cc1cccc(Cl)c1)[C@@H](CO)c1c2c2ccc(OC)cc2n1C ? inactive

Could you kindly confirm the outcome this assay logged for C/C=C/c1cnc2c(c1)C(=O)N([C@H](C)CO)C[C@@H](C)[C@H](CN(C)Cc1cccc(C(=O)O)c1)O2 ? inactive

Could you kindly confirm the outcome this assay logged for CCC(=O)N1CCC2(CC1)CN(Cc1cccc(OC)c1)[C@@H](CO)c1[nH]c3cc(OC)ccc3c12 ? active

Could you kindly confirm the outcome this assay logged for CCS(=O)(=O)N1CCC2(CC1)CN(Cc1ccc3c(c1)OCO3)[C@H](CO)c1[nH]c3cc(OC)ccc3c12 ? active

Could you kindly confirm the outcome this assay logged for CCC(=O)N1CCC2(CC1)CN(Cc1ccc(Cl)cc1)[C@@H](CO)c1[nH]c3cc(OC)ccc3c12 ? active

Could you kindly confirm the outcome this assay logged for CO[C@@H]1CN(C)C(=O)c2cc(NS(=O)(=O)c3ccccc3)ccc2OC[C@@H](C)N(C(=O)NC(C)C)C[C@@H]1C ? inactive

Could you kindly confirm the outcome this assay logged for O=C(C[C@@H]1CC[C@@H]2[C@H](COC[C@@H](O)CN2C(=O)c2ccccc2F)O1)N1CCOCC1 ? inactive

Could you kindly confirm the outcome this assay logged for C/C=C/c1ccc([C@@H]2[C@@H](CO)N(CC3CCCC3)C23CN(S(=O)(=O)CC)C3)cc1 ? inactive

Could you kindly confirm the outcome this assay logged for CCCNC(=O)N1CCC2(CC1)CN(Cc1ccccc1)[C@H](CO)c1[nH]c3cc(OC)ccc3c12 ? inactive

Could you kindly confirm the outcome this assay logged for COc1ccc2c3c([nH]c2c1)[C@@H](CO)N(Cc1ccc2c(c1)OCO2)CC31CN(C(=O)Nc2c(C)noc2C)C1 ? inactive

Could you kindly confirm the outcome this assay logged for CO[C@@H]1CN(C)C(=O)c2cc(NC(=O)NC3CCCC3)ccc2OC[C@H](C)NC[C@H]1C ? inactive
